- measurement_target: UniProt P20309
- Sequence (P20309 whole entry): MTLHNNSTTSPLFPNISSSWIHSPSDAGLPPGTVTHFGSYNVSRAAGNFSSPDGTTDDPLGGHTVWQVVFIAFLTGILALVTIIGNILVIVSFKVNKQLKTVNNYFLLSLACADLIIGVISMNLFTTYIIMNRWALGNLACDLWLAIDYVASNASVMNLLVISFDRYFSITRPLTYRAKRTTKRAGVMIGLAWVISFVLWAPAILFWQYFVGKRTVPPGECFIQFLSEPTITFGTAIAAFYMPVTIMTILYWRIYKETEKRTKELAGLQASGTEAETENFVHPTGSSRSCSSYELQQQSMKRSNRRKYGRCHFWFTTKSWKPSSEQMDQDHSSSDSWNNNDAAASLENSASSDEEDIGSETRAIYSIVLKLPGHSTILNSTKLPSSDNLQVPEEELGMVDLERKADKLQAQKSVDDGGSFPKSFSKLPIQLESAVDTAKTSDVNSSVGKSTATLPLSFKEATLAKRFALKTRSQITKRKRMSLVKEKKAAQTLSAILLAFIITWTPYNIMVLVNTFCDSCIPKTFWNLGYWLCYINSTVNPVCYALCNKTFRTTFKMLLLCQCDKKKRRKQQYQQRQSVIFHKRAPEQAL
- test_summary: Alphascreen Surefire phospho-ERK1/2 functional assay, M3
- test_context: CHO, read-out: % Emax cf. ACh, M3, CHO cells stably expressing human M3; relative to ACh
A collection of compounds and their measured Emax
assay_readout: Emax

1) CCOC(=O)N1CCC2(CC(N3CCC([C@@H]4CCCN4C(=O)NCCOC)CC3)C2)C1 (single isomer, unassigned) [2-31 Isomer 2] : 7%
2) CCOC(=O)N1CCC2(CC(N3CCC(C4CCCN4C(=O)C(F)(F)F)CC3)C2)C1 (single isomer, unassigned) [2-4 Isomer 2] : 3%
3) CCOC(=O)N1CCC2(CC(N3CCC(N4CC(F)(F)C[C@@H]4C(=O)N(C)OC)CC3)C2)C1 (single isomer, unassigned) [2-92 Isomer 2] : 5%
4) O=C(OCCF)N1CCC2(CC(N3CCC(c4ccc[nH]c4=O)CC3)C2)C1 (single isomer, unassigned) [3-3 Isomer 2] : 56%
5) CCOC(=O)N1CCC2(CC(N3CCC(N4CC(F)(F)C[C@@H]4C)CC3)C2)C1 (single isomer, unassigned) [2-106 Isomer 2] : 5%
6) CCOC(=O)N1CCC2(CC(N3CCC(c4ccc[nH]c4=O)CC3)C2)C1 (single isomer, unassigned) [3-2 Isomer 1] : 0%
